Taken from patent US20050075375A1.

- System: monocistronic NK5.1 HCV replicon in Huh7 cells
- Protocol Description: HCV replicon assay, monocistronic replicon cell line
- Format: cell-based, hepatitis C virus
- Condition Notes: Hepatitis C virus, Huh-7, 72 h; table T3 (compounds 471-640); monocistronic replicon in Huh7 cells, 3 days incubation, HCV RNA/GAPDH RNA by TaqMan RT-PCR; read-out: Mono EC50 Median
pEC50: −log10 of the molar value.
Metric Name: pEC50

# Given Smiles, Study System, pEC50
records = [
    ("Oc1cc(OCc2ccccc2)ccc1-c1nc(-c2ncccc2C(F)(F)F)n[nH]1", "monocistronic NK5.1 HCV replicon in Huh7 cells", "< 4.72"),
    ("COc1ccc(O)c(-c2ncn(-c3ncccc3C)n2)c1", "monocistronic NK5.1 HCV replicon in Huh7 cells", 4.92),
    ("COc1ccc(O)c(-c2nc(-c3cnccn3)n[nH]2)c1", "monocistronic NK5.1 HCV replicon in Huh7 cells", "< 4.49"),
    ("Cn1nc(-c2ncccc2C(F)(F)F)nc1-c1cc([N+](=O)[O-])ccc1O", "monocistronic NK5.1 HCV replicon in Huh7 cells", "< 4.49"),
    ("COc1cccc(-c2nc(-c3ncccc3C(F)(F)F)n[nH]2)c1O", "monocistronic NK5.1 HCV replicon in Huh7 cells", "< 4.72"),
]

Entry `Fc1cc(-c2nc(-c3ncccc3C(F)(F)F)n[nH]2)ccc1-c1ccccc1` ; pEC50 = < 4.72

Entry `COc1ccc(O)c(-c2nc(-c3ncccc3[N+](=O)[O-])n[nH]2)c1` ; pEC50 = < 4.72

Entry `COc1ccc(O)c(-c2nc(-c3ncccc3C(F)(F)F)n[nH]2)c1` ; pEC50 = 5.64

Entry `COc1cccc(-c2nc(-c3ncccn3)n[nH]2)c1O` ; pEC50 = < 4.49

====

Property: EC50; scope: individual compounds
- Test system: monocistronic NK5.1 HCV replicon in Huh7 cells
- Protocol Description: HCV replicon assay, monocistronic replicon cell line
- Format: cell-based, hepatitis C virus
- Condition Notes: Hepatitis C virus, Huh-7; monocistronic NK5.1 HCV replicon in Huh7 cells; median value; read-out: Mono EC50 Median

Known EC50 results, listed for orientation:
# Given Smiles, EC50
measured = [
    ("CC(=O)Nc1ccc(-c2noc(-c3cc(C)ccc3O)n2)nc1", "> 19 µM"),
    ("Cc1cccnc1-c1noc(-c2ccc(OCc3ccccc3)cc2O)n1", "1.8 µM"),
]

# lookup: `Cc1ccc(O)c(-c2nc(-c3ccccn3)n[nH]2)c1` on monocistronic NK5.1 HCV replicon in Huh7 cells, EC50 = > 19 µM

# lookup: `Cc1cccc(-c2n[nH]c(-c3cc(C(C)(C)C)ccc3O)n2)n1` on monocistronic NK5.1 HCV replicon in Huh7 cells, EC50 = > 19 µM

# lookup: `Oc1ccc(F)cc1-c1nc(-c2ccccn2)n[nH]1` on monocistronic NK5.1 HCV replicon in Huh7 cells, EC50 = 7.1 µM

# lookup: `CCOc1cccc(-c2nc(-c3cccc(C)n3)n[nH]2)c1O` on monocistronic NK5.1 HCV replicon in Huh7 cells, EC50 = > 19 µM

# lookup: `COc1ccc(O)c(-c2nc(-c3cccc(C)n3)n[nH]2)c1` on monocistronic NK5.1 HCV replicon in Huh7 cells, EC50 = > 19 µM

# lookup: `COc1ccccc1-c1nnc(-c2ccco2)o1` on monocistronic NK5.1 HCV replicon in Huh7 cells, EC50 = > 32 µM
